Entries and their MIC
Tested on: S. aureus ATCC 29213
procedure text: In vitro susceptibility, broth microdilution MIC
Format: cell-based, Staphylococcus aureus
experimental conditions: Staphylococcus aureus, ATCC29213, Tables 1-6 and text; minimum concentration to give >98% inhibition of growth; read-out: MIC

Example entries begin here.
- compound: "Brc1ccc2cc(/C=C/c3cc4ccc(Br)cc4[nH]3)[nH]c2c1 [Compound 27b, (E)-1,2-bis(6-bromo-1H-indol-2-yl)ethane]"
  value observed: "> 64 µg/mL"
- compound: "Brc1ccc2[nH]c(-c3ccc(-c4cc5ccc(Br)cc5[nH]4)s3)cc2c1"
  value observed: "> 64 µg/mL"
- compound: "Brc1ccc2cc(-c3ccc(-c4ccn[nH]4)s3)[nH]c2c1"
  value observed: "0.5 µg/mL"
- compound: "O=C(Nc1nc2ccc(Br)cc2s1)c1cc2ccccc2[nH]1"
  value observed: "> 64 µg/mL"
- compound: "Brc1ccc(-c2ccc(-c3cncc(-c4cc5ccccc5[nH]4)n3)cc2)cc1"
  value observed: "> 64 µg/mL"

Q: Form field: reported MIC of Brc1ccc2[nH]c(-c3cc4cc(Br)c(Br)cc4[nH]3)cc2c1 [Compound 10m, 5,5′,6-Tribromo-1H,1′H-2,2′-biindole]
Ans: 1 µg/mL

Q: Item: Brc1ccc2[nH]c(C#Cc3cc4ccc(Br)cc4[nH]3)cc2c1 [Compound 25c]
Ans: 16 µg/mL

Q: Same for `O=C(Nc1nc2ccc(Br)cc2s1)c1ccccc1O`
Ans: > 64 µg/mL

Q: Further, for `O=C(c1cc2ccc(Br)cc2[nH]1)c1cc2ccccc2cc1O` ?
Ans: > 64 µg/mL

Q: Same for Brc1ccc2cc(-c3cc4cc(-c5ccccc5)ccc4[nH]3)[nH]c2c1 [Compound 10g, 6′-Bromo-5-phenyl-1H,1′H-2,2′-biindole]
Ans: > 64 µg/mL

Q: How about `C(=C\c1cc2ccccc2[nH]1)/c1cc2ccccc2[nH]1` ?
Ans: > 64 µg/mL

Q: Again, but for `O=C(Nc1cc(Br)ccc1O)c1cc2ccc(Br)cc2[nH]1`
Ans: > 64 µg/mL

Q: Then this compound: `O=C(Nc1nc2cc(Br)ccc2s1)c1cc2cc(Br)ccc2[nH]1`
Ans: > 64 µg/mL

###

target system: MRSA PK (Staphylococcus aureus)
Construct: His tag (pET-28a(+) vector) (N)
Sequence (Q6GG09 whole entry): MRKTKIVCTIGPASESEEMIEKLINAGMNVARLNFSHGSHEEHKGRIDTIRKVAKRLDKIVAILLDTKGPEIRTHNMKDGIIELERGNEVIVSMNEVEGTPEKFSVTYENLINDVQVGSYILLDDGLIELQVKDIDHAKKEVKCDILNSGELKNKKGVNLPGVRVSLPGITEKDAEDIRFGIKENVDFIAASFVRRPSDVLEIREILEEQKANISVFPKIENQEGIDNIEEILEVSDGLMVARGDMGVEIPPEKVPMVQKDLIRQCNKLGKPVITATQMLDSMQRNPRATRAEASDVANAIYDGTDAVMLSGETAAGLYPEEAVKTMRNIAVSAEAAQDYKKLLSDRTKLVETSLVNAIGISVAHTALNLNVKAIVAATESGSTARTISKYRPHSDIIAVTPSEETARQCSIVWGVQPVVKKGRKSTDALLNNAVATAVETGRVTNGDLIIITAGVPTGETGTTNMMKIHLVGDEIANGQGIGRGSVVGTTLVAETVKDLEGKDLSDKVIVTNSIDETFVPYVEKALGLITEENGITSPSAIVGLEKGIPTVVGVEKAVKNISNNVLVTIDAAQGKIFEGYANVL
procedure text: MRSA PK activity, continuous LDH-coupled assay
reported metric: pEC50
The value called pEC50 is obtained by taking minus log10 of the concentration in mol/L.

Q: What does the data say about its pEC50? Entry: `COC(=O)c1c(C(=O)Nc2ccc(Cl)cn2)[nH]c2cc(Br)ccc12`
Ans: 7.88

Q: Would you mind doing `Clc1ccc(NCc2cc3ccc(Br)cc3[nH]2)cc1` as well?
Ans: 6.61

Q: Now consider `O=[N+]([O-])c1cc(/C=C/c2cc3ccc(Br)cc3[nH]2)ccc1Cl` .
Ans: 8.07

Q: Follow-up item: `COC(=O)c1c(C(=O)Nc2ccc(OC)nc2)[nH]c2cc(Br)ccc12`
Ans: 7.50

Q: Now try `COC(=O)c1c(C(=O)Nc2ccc(Br)cc2)[nH]c2cc(Br)ccc12` .
Ans: 7.82

###

Test system: VRE#2 (2010A)
procedure text: Broth microdilution MIC
Assay type: cell-based, vancomycin-resistant Enterococcus
experimental conditions: Enterococcus; VRE#2 (2010A); read-out: MIC (μg/mL) F
reported metric: MIC
The answer should read as a number with its unit following.

- compound: "O=C(c1c(CCc2ccc(Cl)cc2)[nH]c2cc(Br)ccc12)C(F)(F)F"
  value observed: "1 µg/mL"
- compound: "O=C(c1c(/C=C/c2ccc(Cl)cc2)[nH]c2cc(Br)ccc12)C(F)(F)F"
  value observed: "1 µg/mL"
- compound: "COc1cccc(OC)c1C(=O)N[C@@H]1C(=O)N2[C@@H]1SC(C)(C)[C@@H]2C(=O)O [Methicillin, methicillin, reference compound]"
  value observed: "64 µg/mL"
- compound: "O=C(c1c(-c2cc3cc(Cl)ccc3[nH]2)[nH]c2cc(Br)ccc12)C(F)(F)F"
  value observed: "1 µg/mL"
- compound: "O=C(O)c1c(/C=C/c2ccc(Cl)cc2)[nH]c2cc(Br)ccc12"
  value observed: "32 µg/mL"

Q: Value lookup for MIC; key = `COC(=O)c1c(/C=C/c2ccc(Cl)cc2)[nH]c2cc(Br)ccc12`
Ans: 8 µg/mL

Reference source: patent US20170216252A1
